Where do these numbers come from? They come from patent US11472778B2.

- EXPERIMENTAL TARGET: GT1a R155K NS3/4A protease (UniProt P27958, R1181K, species not given)
- Format: biochemical, Hepatitis C virus
- TEST SETTINGS: read-out: Ki R155K; R155K variant
pKi: −log10 of the molar value.
// label = T if pKi is not less than 8, otherwise F

The following compounds have reported results that may help.
>  <COMPOUND>
C=C[C@@H]1C[C@]1(NC(=O)[C@@H]1C[C@@H](Oc2nc3cc(OC)ccc3nc2C(F)(F)F)CN1C(=O)[C@@H](NC(=O)OC(C)(C)C)C(C)(C)C)C(=O)NS(=O)(=O)C1CC1

>  <GROUP LABEL>
F

$$$$
>  <COMPOUND>
C=C[C@@H]1C[C@]1(NC(=O)[C@@H]1C[C@@H](Oc2nc3cc(OC)ccc3nc2Cl)CN1C(=O)[C@@H](NC(=O)OC1CCCC1)C(C)(C)C)C(=O)NS(=O)(=O)C1CC1 [Compound 11d]

>  <GROUP LABEL>
T

$$$$

Next compound, please.
Request: Entry "CCc1nc2ccc(OC)cc2nc1O[C@@H]1C[C@H]2C(=O)N[C@]3(C(=O)NS(=O)(=O)C4CC4)C[C@H]3/C=C\CCCCC[C@H](NC(=O)OC(C)(C)C)C(=O)N2C1" : is its pKi no less than 8?
Response: T

----------
- EXPERIMENTAL TARGET: GT1a R155K NS3/4A protease (UniProt P27958, R1181K, species not given)
- Format: biochemical, Hepatitis C virus
- TEST SETTINGS: read-out: Ki R155K; R155K variant
REPORTED PROPERTY: Ki

As a guide, the following entries are already answered.
>  <COMPOUND>
C=C[C@@H]1C[C@]1(NC(=O)[C@@H]1C[C@@H](Oc2nc3cc(OC)ccc3nc2CC)CN1C(=O)[C@@H](NC(=O)OC1CCCC1)C(C)(C)C)C(=O)NS(=O)(=O)C1CC1 [Compound 11a]

>  <Ki>
15 nM

$$$$
>  <COMPOUND>
C=C[C@@H]1C[C@]1(NC(=O)[C@@H]1C[C@@H](Oc2nc3cc(OC)ccc3nc2C)CN1C(=O)[C@@H](NC(=O)OC1CCCC1)C(C)(C)C)C(=O)NS(=O)(=O)C1CC1 [Compound 11b]

>  <Ki>
9.6 nM

$$$$
>  <COMPOUND>
C=C[C@@H]1C[C@]1(NC(=O)[C@@H]1C[C@@H](Oc2nc3cc(OC)ccc3nc2C)CN1C(=O)[C@@H](NC(=O)OC(C)(C)C)C(C)(C)C)C(=O)NS(=O)(=O)C1CC1 [Compound 9b]

>  <Ki>
8.5 nM

$$$$

Next compound, please.
Request: # query: Ki | item C=C[C@@H]1C[C@]1(NC(=O)[C@@H]1C[C@@H](Oc2nc3cc(OC)ccc3nc2C)CN1C(=O)[C@@H](NC(=O)OC1CCCC1)C(C)(C)C)C(=O)NS(=O)(=O)C1(C)CC1 [Compound 12b] | system: GT1a R155K NS3/4A protease (UniProt P27958, R1181K, species not given)
Response: 10 nM
